# credit: ChEMBL document CHEMBL1944616

Tested on: Plasmodium falciparum
experiment notes: Antimalarial activity against ring stage Plasmodium falciparum 3D7 infected in human erythrocytes after 48 hrs by flow cytometry
Format: functional, organism-based
assay conditions: 3D7, 48 h
pIC50 values by entry
Reminder that pIC50 means the negative base-10 logarithm of the concentration expressed in mol/L.

[
  {
    "molecule": "O=C(O)CCc1cc(F)cc2c1B(O)OC2",
    "pIC50": 7.21
  },
  {
    "molecule": "O=C(O)C(F)Cc1cccc2c1B(O)OC2 (stereo unspecified)",
    "pIC50": 6.08
  },
  {
    "molecule": "O=C1C(O)=C([C@H]2CC[C@H](c3ccc(Cl)cc3)CC2)C(=O)c2ccccc21 [ATOVAQUONE]",
    "pIC50": 9.00
  },
  {
    "molecule": "O=C(O)CCc1c(Cl)ccc2c1B(O)OC2",
    "pIC50": 6.12
  },
  {
    "molecule": "O=C(O)C1CCc2ccc3c(c2C1)B(O)OC3 (stereo unspecified)",
    "pIC50": 5.74
  },
  {
    "molecule": "COc1cc(CCC(=O)O)c2c(c1)COB2O",
    "pIC50": 5.46
  }
]

The molecule Cc1ccc(CCC(=O)O)c2c1COB2O showed pIC50 equal to 5.84

The molecule O=C(O)CCc1cc(Cl)cc2c1B(O)OC2 showed pIC50 equal to 5.88
